# Test system: NCI-H23
# MEASUREMENT DESCRIPTION: NCI tumour cell line growth inhibition, 48 h
Active and inactive are the calls of the source. Cut-off read from the data, not from the text of the source: active = GI50 up to about 1.1 µM and inactive = higher.
MEASUREMENT TYPE: GI50

See these solved cases before continuing.
COMPOUND	GI50
O=C1OCC2OC(=O)c3cc(O)c(O)c(O)c3-c3c(O)c(O)c(O)c4c3C(=O)OC(C2OC(=O)c2cc(O)c(O)c(O)c2-c2c1cc(O)c(O)c2O)C1OC(=O)C2C4=C(O)C(=O)C23Oc2cc(O)c4c(c2[C@H]13)O[C@H](c1ccc(O)c(O)c1)[C@@H](O)C4 (stereo partly drawn)	19.8 µM (inactive)
Cc1ncc([N+](=O)[O-])n1CCNS(=O)(=O)CCCn1ccnc1[N+](=O)[O-]	> 100 µM (inactive)

Which GI50 is reported for this compound? CC(C)N1CCCOC(c2ccc([N+](=O)[O-])cc2)O1 (stereo not drawn)
> 100 µM (inactive)
